Test system: PPARg:RXRa 90nM:30nM, anti-RXR (NR concentration 90 nM, RXRa partner concentration 30 nM)
method summary: PBM binding z-score (relative to random genomic background probes); higher = stronger binding; sequences stand for … in GC…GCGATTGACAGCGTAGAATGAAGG
Property: PBM binding z-score; scope: individual sequences
result type: PBM binding z-score

[[record]]
chain = "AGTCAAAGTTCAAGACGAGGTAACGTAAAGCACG"
recorded_value = 5.35

[[record]]
chain = "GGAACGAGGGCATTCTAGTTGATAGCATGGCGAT"
recorded_value = 0.231

[[record]]
chain = "AATACAGGGTCATTGTAGGCCAGAGTACGCACAG"
recorded_value = 4.29

[[record]]
chain = "TTTCCAAGGTGAGCTGAGGTCGTTGATCCAACTC"
recorded_value = 0.913

[[record]]
chain = "CCTACTGGGCCATCAGATCATTGATATCAACGTT"
recorded_value = 1.28

[[record]]
chain = "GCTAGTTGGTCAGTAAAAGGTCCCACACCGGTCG"
recorded_value = -0.225

[[record]]
chain = "CGTCAAAGTTCAAGGTAACGGAACAGAAAGCAGC"
recorded_value = 4.21

[[record]]
chain = "CTTCCAAGGTCAAGGTCAGTGAAAGAGACTCGAA"
recorded_value = 5.13

[[record]]
chain = "TCGTGTAGATCAACAGGAGGTTAAGAAAGATCGA"
recorded_value = 1.52

[[record]]
chain = "TTACCAAGGTGAAGGTCGGTGATCCCTCTGTAGA"
recorded_value = 2.96

[[record]]
chain = "GCACCAAGGTGAATAGGTCGTTGATGAGTAGGCG"
recorded_value = 0.742

[[record]]
chain = "GGAACCAGGGCAAGTTGATAGCAGAGTTTGATGG"
recorded_value = 0.257

[[record]]
chain = "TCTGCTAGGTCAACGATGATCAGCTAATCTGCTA"
recorded_value = 2.38

[[record]]
chain = "GCAACGAGGGCAAGTTGATAGCAGAGTTTGATGG"
recorded_value = 0.481

[[record]]
chain = "CGAACTAGGTCAACCAGGACAGTGAATACATTGA"
recorded_value = 5.96

[[record]]
chain = "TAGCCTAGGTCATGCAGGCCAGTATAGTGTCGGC"
recorded_value = 1.34

[[record]]
chain = "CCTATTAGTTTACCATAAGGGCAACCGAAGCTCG"
recorded_value = 0.455

[[record]]
chain = "GCGACTGGGGCATCAGTAGGTTACCATAACTTAA"
recorded_value = 0.86

[[record]]
chain = "TCTTGTAGATCAAGCAGGTTAAGATAGCCTGAGT"
recorded_value = 2.18

[[record]]
chain = "CCTACTGGGCCAAAGGTCATTTATTCCAATGCTC"
recorded_value = 11.5

[[record]]
chain = "GCCAGTTGGTCAGTAAAAGGTCACACACCGGTCG"
recorded_value = 3.62

[[record]]
chain = "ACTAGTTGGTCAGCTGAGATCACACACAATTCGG"
recorded_value = 0.195

[[record]]
chain = "CCTACTGGGCCAAAGGTCATTCATTCCAATGCTC"
recorded_value = 11.8

[[record]]
chain = "TCTATTAGTTGAAGTGCAACCGACGAGTCCGTTT"
recorded_value = 2.88

[[record]]
chain = "TCTCGGAGGACACCAAGGTCAGAGCTTTCCAGAG"
recorded_value = 1.76

[[record]]
chain = "CCGAGTAGGTTATGGGGCATTCCGGCAACGGTGA"
recorded_value = 3.99

[[record]]
chain = "CCTCGGAGGACAGAAGGTCAGAACTGTCCGCTTT"
recorded_value = 0.0441

[[record]]
chain = "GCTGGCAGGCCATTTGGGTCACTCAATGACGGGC"
recorded_value = 0.136

[[record]]
chain = "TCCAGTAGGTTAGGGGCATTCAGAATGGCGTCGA"
recorded_value = 3.05

[[record]]
chain = "CTCGAAAGGTCGGTAGAGGTGAGTATACGGATAA"
recorded_value = 0.994

[[record]]
chain = "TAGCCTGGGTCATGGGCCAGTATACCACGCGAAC"
recorded_value = 2.53

[[record]]
chain = "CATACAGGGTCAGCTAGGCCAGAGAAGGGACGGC"
recorded_value = 1.82

[[record]]
chain = "GCTAGTTGGTCAGTAAAAGGTCACAGACCGGTCG"
recorded_value = 4.5

[[record]]
chain = "AGAATGAGGTTATTAAGATCAGGGATTTGCGGTC"
recorded_value = 1.21

[[record]]
chain = "CTACCAAGGTGAACAAGGTCGATGATTACTATTC"
recorded_value = 0.353

[[record]]
chain = "CCGACTGGGGCAGAGAGGTTACCATACCATCCGG"
recorded_value = 0.899

[[record]]
chain = "ATCGAGAGGTCGAGGTGAGTATAGAGAAAGGGAA"
recorded_value = 1.15

[[record]]
chain = "GCTACTAGTTGAAAGGGCAACCGAATGATTCTCG"
recorded_value = 5.08

[[record]]
chain = "GATACAGGGTCAAGGCCAGCGTACGCGTATTGAT"
recorded_value = 4.12

[[record]]
chain = "CGAACTAGGTCATTGGCAGGACAGTGAATAGTAA"
recorded_value = 5.72

[[record]]
chain = "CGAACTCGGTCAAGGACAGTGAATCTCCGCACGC"
recorded_value = -0.129

[[record]]
chain = "TCTAGCAGGCCAGAGGGTCACTCACGAGGTACGG"
recorded_value = 2.54

[[record]]
chain = "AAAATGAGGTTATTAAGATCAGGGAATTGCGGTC"
recorded_value = 1.48

[[record]]
chain = "CCGACTGCGGCATAAGGTTACCATAAGCCAGCCC"
recorded_value = -0.29

[[record]]
chain = "ACTAGAAGGCCAAGTTTGGGTCACTCAAACAAAG"
recorded_value = 0.134

[[record]]
chain = "TCTGCTAGGTCAACGAGGGTCAGCTAATCTGCTA"
recorded_value = 3.02

[[record]]
chain = "AGTCAAAGTTCATCTAGGTAACGCAAGATATGCT"
recorded_value = 5.58

[[record]]
chain = "TGAATGAGGTTTTAAGATCAGGGAACGTTGCAAA"
recorded_value = 0.043

[[record]]
chain = "CCTTACCGGTCACTCCAGGTTATAGCATCGGAGT"
recorded_value = 0.653

[[record]]
chain = "ATCTATAGGTAAGACTCAGTTCAGTGAAGAACGC"
recorded_value = 0.169

[[record]]
chain = "AGAATGAGGTGATTAAGATCAGGGAATTGCGGTC"
recorded_value = 0.0296

